tgt: T1, human IL-36R (on cells) (human, UniProt Q9HB29 20-575)
T1 sequence (looked up): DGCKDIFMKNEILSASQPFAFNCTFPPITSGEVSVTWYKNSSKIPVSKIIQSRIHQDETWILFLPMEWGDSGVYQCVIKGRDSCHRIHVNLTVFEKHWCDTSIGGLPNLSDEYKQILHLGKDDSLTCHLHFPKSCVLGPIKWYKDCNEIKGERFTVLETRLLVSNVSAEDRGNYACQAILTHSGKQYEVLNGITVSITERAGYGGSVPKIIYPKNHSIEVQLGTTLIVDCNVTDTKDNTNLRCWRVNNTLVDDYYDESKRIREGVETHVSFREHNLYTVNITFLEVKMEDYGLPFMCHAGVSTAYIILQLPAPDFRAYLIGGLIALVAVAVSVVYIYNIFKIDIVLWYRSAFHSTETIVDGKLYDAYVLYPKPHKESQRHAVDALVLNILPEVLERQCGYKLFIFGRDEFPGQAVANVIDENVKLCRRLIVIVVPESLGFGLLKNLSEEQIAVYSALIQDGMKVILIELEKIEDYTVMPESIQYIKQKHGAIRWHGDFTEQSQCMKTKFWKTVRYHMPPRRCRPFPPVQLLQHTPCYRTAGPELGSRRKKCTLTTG
test_details: cell-based or functional assay
measured_quantity: EC50 (nM), HEK human IL-36R IL-8 luciferase reporter assay, 50 ng/ml hIL-36α
// return numeric value only (unit: nM, not printed)

Example entries begin here.
INSERT INTO assay_data (binder, unit_string, test_result) VALUES
  ('Hzd 5D3 (APE6155) (antibody, V domains shown, also called APE6917; APE06155) VH: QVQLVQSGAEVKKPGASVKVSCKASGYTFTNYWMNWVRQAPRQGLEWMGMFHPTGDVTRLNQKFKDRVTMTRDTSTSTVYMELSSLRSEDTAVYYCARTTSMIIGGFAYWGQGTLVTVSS VL: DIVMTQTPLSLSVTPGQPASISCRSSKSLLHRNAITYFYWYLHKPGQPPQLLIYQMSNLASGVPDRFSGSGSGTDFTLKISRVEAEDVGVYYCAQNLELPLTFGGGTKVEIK', 'nM', 0.23),
  ('Hzd 18D4 (APE7247) (antibody, V domains shown, also called APE6903; APE07247) VH: DVQFQESGPGLVKPSQTLSLTCTVTGYSITADFAWNWIRQPPGKGLEWIGYISYSGDTNYNPSLKSRVTITRDTSKNQFSLKLSSVTAADTAVYFCAIRGPYSFTYWGQGTLVTVSS VL: DIQMTQSPSSLSASVGDRVTITCRASQWINNYLNWYQQKPGKAPKLLIYYTSMLHSGVPSRFSPSGSGNDYTFTISSLQPEDIATYYCQQGHTLPWTFGGGTKVEIKR', 'nM', 0.066),
  ('Hzd 5D3 (APE6194) (antibody, V domains shown, also called 5D3 Humanized) VH: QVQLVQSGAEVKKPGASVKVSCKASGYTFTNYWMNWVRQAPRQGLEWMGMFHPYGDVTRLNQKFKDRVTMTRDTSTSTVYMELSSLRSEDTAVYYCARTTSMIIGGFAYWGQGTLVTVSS VL: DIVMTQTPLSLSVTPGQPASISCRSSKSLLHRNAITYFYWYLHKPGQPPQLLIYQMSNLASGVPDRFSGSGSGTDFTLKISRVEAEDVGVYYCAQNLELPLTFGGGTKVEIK', 'nM', 0.17),
  ('Humanized (HzD) 1D9 (APE5281) (antibody, V domains shown, also called 1D9 Humanized) VH: QVQLMQSGAEVKKPGASVKVSCKASGFTFTSYDINWVRQAPGQRLEWMGWIYPGDSSTKYNEKFKGRVTITADKSANTAYMELASLRSEDTAVYFCTRSFYTMDYWGQGTTVTVSS VL: DIVMTQSPLSLPVTPGEPASISCRSSKSLLHSNANTYLYWFLQKPGQSPQLLISRMSNLASGVPDRFSGSGSGTDFTLKISRVEAEDVGVYYCMQHLEYPFTFGQGTKLEIK', 'nM', 0.17);

Consider the record given below.
## Input Which EC50 (nM), HEK human IL-36R IL-8 luciferase reporter assay, 50 ng/ml hIL-36α value belongs to Hzd 5D3 (APE6060) (antibody, V domains shown, also called 5D3 Humanized) VH: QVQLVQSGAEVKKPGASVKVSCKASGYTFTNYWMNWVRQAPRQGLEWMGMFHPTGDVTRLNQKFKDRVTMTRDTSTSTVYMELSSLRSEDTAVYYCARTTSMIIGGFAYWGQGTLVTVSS VL: DIVMTQTPLSLSVTPGQPASISCRSSKSLLHRNAITYFYWYLQKPGQPPQLLIYQMSNLASGVPDRFSGSGSGTDFTLKISRVEAEDVGVYYCAQNLELPLTFGGGTKVEIK ?
## Output 0.23
